# credit: patent US20090298786A1

ASSAYED_TARGET: HCV helicase (helicase domain of NS3 protein)
Construct: The helicase domain of NS3 protein was expressed in a baculovirus system in HF insect cell line; fused on or other part: Histidine tag, inferred from the Talon cobalt column purification ('histidine repetitions')
ASSAY_INFO: Fluorometric (FRET) antihelicase activity assay
Assay type: biochemical, hepatitis C virus (HCV)
EXPERIMENTAL_PARAMETERS: concentration inhibiting 50% of helicase activity; 10 nM enzyme pre-incubated 15 min with derivative, unwinding at 30° C. for 60 min; read-out: IC50
PROPERTY_LABEL: pIC50
Numbers only, as −log10 of the molar value.

// input: 6 molecules below; output: pIC50 for each
1. COc1cccc2c1C(=O)c1c(O)c3c(c(O)c1C2=O)CC(O)(C(=O)CO)CC3OC1CC(N=C(C)N2CCCCC2)C(O)C(C)O1 (stereo not drawn) [Derivative 127]
2. COc1cccc2c1C(=O)c1c(O)c3c(c(O)c1C2=O)CC(O)(C(=O)CO)CC3OC1CC(N=CN2CCN(C)CC2)C(O)C(C)O1 (stereo not drawn) [Derivative 112]
3. COc1cccc2c1C(=O)c1c(O)c3c(c(O)c1C2=O)CC(O)(C(C)=O)CC3OC1CC(N=CN2CCN(C)CC2)C(O)C(C)O1 (stereo not drawn) [Derivative 77]
4. COc1cccc2c1C(=O)c1c(O)c3c(c(O)c1C2=O)CC(O)(C(=O)CO)CC3OC1CC(N=CN(C)C(C)c2ccccc2)C(O)C(C)O1 (stereo not drawn)
5. COc1cccc2c1C(=O)c1c(O)c3c(c(O)c1C2=O)CC(O)(C(C)=O)CC3OC1CC(N=CN2CCOCC2)C(O)C(C)O1 (stereo not drawn) [Derivative 3]
6. COc1cccc2c1C(=O)c1c(O)c3c(c(O)c1C2=O)CC(O)(C(=O)CO)CC3OC1CC(N=CN2CCCCCC2)C(O)C(C)O1 (stereo not drawn) [Derivative 41]

1: 6.66; 2: 5.82; 3: 6.11; 4: 5.60; 5: 5.50; 6: 5.79
